Assign MFI Fold change (THP-1 WT over THP-1 TREM2 KO) to each entry below.
Biological target: T1, human TREM2 (human, UniProt Q9NZC2 19-230)
T1 construct: on THP-1 WT cells and M2a-like macrophages (endogenous) and on CHO or HEK293T cells overexpressing human TREM2 with DAP12; also called hTREM2
T1 sequence: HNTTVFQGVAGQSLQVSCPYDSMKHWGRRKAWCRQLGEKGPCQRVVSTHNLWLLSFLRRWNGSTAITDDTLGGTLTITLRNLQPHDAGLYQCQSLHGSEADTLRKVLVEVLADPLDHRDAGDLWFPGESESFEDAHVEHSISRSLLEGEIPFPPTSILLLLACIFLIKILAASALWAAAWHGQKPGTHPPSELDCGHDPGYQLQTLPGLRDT
Test: flow cytometry, THP-1 WT vs THP-1 TREM2 KO cells, 10 ug/ml
Lab book: enter the figure in fold, no units written.

Request: Please look up its MFI Fold change (THP-1 WT over THP-1 TREM2 KO): EOS006166 (antibody, V domains shown) VH: EVQLVESGGGLVQPGRSLRLSCTASGFTFGDYAMSWFRQAPGKGLEWVGFIGSKAYGGTTEYTASVKGRFTISRDGSKSIAYLQMNSLKTEDTAVYYCARGKRYSYGYWHPAFDVWGQGTMVTVSS VL: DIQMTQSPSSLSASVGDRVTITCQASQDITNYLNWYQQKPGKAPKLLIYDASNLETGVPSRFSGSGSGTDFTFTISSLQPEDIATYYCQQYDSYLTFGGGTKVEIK
Response: 1.8

Request: I am curious: what MFI Fold change (THP-1 WT over THP-1 TREM2 KO) value has been reported for EOS006174 (antibody, V domains shown) VH: EVQLVESGGGLVQPGRSLRLSCTASGFTFGEYTMSWFRQAPGKGLEWVGFIGSKAYAGTTEYTASVKGRFTISRDGSKSIAYLQMNSLKTEDTAVYYCARGKRYSYGGWVPAFDVWGQGTMVTVSS VL: DIQMTQSPSSLSASVGDRVTITCQASQDITNYLNWYQQKPGKAPKLLIYDASNLETGVPSRFSGSGSGTDFTFTISSLQPEDIATYYCQEYDSYLAFGGGTKVEIK ?
Response: 5.1
